target_or_system: T1, Baboon EL-C2 tag (baboon, UniProt Q9Y5X9 21-500 (human entry), limits assumed)
T1 chain: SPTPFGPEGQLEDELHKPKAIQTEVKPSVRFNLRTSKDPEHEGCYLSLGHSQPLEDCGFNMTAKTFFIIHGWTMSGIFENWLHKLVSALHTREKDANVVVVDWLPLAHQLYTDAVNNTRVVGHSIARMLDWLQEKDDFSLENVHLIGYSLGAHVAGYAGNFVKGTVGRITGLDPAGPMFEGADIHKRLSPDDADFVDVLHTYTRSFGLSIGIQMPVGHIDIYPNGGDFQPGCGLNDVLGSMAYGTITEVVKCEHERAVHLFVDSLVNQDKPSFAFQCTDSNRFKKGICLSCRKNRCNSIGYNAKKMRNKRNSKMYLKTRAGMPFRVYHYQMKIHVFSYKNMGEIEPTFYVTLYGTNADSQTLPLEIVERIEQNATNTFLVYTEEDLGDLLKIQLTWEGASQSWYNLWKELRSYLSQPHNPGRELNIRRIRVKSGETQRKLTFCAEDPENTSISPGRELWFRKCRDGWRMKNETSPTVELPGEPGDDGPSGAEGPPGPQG
assay_overview: cell-based or functional assay
Neutralizing activity_IC50 listing for selected binders.
Please reply with the bare figure in nM and do not write the unit itself.

Solved entries (count: 2):
binder | reported_endpoint | quantitative_readout
8F5 antibody (antibody, IgG2a, V domains shown) VH: QVTLKESGPGILQPSQTLSLTCSFSGFSLSTSNMGVGWIRQPSGKGLEWLAHIWWNDYKYYNTALKSRLTISKDTSNNQVFLKIASLDTADTATYYCARIGGGTPLDYWGQGTSLTVSS VL: DIQMAQSPSSLSASLGGKVTITCKASQDIHTYIAWYQHKPGKGPRLLMLYTSTLQPGIPSRFSGSGSGRDYSFSISNLEPEDIATYYCLQYDDLLWTFGGGTKLEIK | Neutralizing activity_IC50 | 4.8
41H8 antibody (antibody, IgG1, V domains shown) VH: QVTLKESGPGILQPSQTLSLTCSFSGFSLSTYGMGVGWIRQPSGKGLEWLAHIWWNENKYYNTDLKSRLTISKDTSNNQVFLKIASVDTADTATYYCARIGPGVPFDYWGQGTTITVSS VL: DIQMTQSPSSLSASLGGKVTITCKASQDINKFIAWYQHKPGKGPRLLIHYTSTLQPGIPSRFNGSGSGRDYSFTISNLEPEDIATYYCLQYDILTWTFGGGTKLEIK | Neutralizing activity_IC50 | 7.2

Field: next binder
# input Reported Neutralizing activity_IC50, binder 3B1 antibody (antibody, IgG1, V domains shown) VH: QVTLKESGPGILQPSQTLSLTCSFSGFSLSTSGVGVGWIRQPSGKGLEWLAHIWWNDNKYYNTALKSRLTISKDTSNNQVFLKIASVDTADTATYFCARSYDGYPFDYWGQGTLVTVSA VL: DIQMTQSPSSLSASLGGKVTITCKASQDINKYIVWYQHKPGKGPRLLIHHTSTLQPGIPSRFSESGSGRDYSFSISNLEPEDIASYYCLQYDTLLWTFGGGTKLEIR : ____
# output 6.6
